These measurements were taken from PubChem BioAssay AID1159580.

assay remarks: chemical genetic growth profiling, strain panel (AID 1159580);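 also: tested at 20 µM; growth read once vehicle control cultures reached saturation at 30 °C; 1 = growth at the plate median or of vehicle wells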
condition context: S. cerevisiae deletion strains, growth OD, locus YNR052C, strain pop2
About 2,000 (36%) of roughly 5,500 compounds were called active. Not shown: some 18% with an inconclusive outcome. Rule as the data show it: active = normalized growth mostly below about 0.91 (no sharp cut-off); inconclusive = no clear call, values can overlap the other calls; inactive = mostly above about 0.92. Some of the results follow.
Return exactly one item of T = active, F = inactive

Known results for compounds:
O=C(O)Cc1cc(I)c(Oc2cc(I)c(O)c(I)c2)c(I)c1 ... F
N#C/C(=C\c1cccc(O)c1)C(=O)O ... F

# outcome recorded in this test, key = `N[C@H](Cc1ccccc1)C(=O)O`
F

Fill in: this test's call for `N[C@H](Cc1cc(I)c(Oc2ccc(O)c(I)c2)c(I)c1)C(=O)O` is ___
F

What is the recorded call for this compound in the test? CC(=O)O[C@H]1CC[C@]2(C)C3C(=O)[C@@H](OC(C)=O)[C@@]4(C)C(C[C@@H]5O[C@]6(CCC(C)CO6)[C@@H](C)[C@@H]54)C3CC[C@H]2C1 (stereo not given in full)
F

I would be grateful if you could indicate the recorded call for CC(=O)O[C@H]1CC[C@]2(C)C3=CC(=O)[C@@]4(C)C(C[C@@H]5OC6(OCC(C)CC6Br)[C@@H](C)[C@@H]54)C3CC[C@H]2C1 (stereo not given in full) .
F

What call does the record list for `NNCCc1ccccc1` ?
F

Status in this test for `COc1cc(C(=O)O)c2c(c1C)OC(=O)c1c(C)cc(O)c(C=O)c1O2` ?
F

How did this test come out for CN[C@@H]1[C@H](OC2[C@H](O[C@H]3[C@H](O)[C@@H](O)[C@H](N=C(N)N)[C@@H](O)[C@@H]3N=C(N)N)O[C@@H](C)[C@]2(O)C=O)O[C@@H](CO)[C@H](O)[C@H]1O (stereo not given in full) ?
F

Given NC(Cc1ccc(F)cc1)C(=O)O (stereo not given) , state the outcome it received in this test.
F

----------
assay remarks: chemical genetic growth profiling, strain panel (AID 1159580)
condition context: S. cerevisiae deletion strains, growth OD, locus YJL168C, strain set2, stronger effect = lower value
The whole screen tested about 5,500 compounds, of which about 2,000 (36%) were called active. Inconclusive results (about 18%) are left out. The list shows a part of the results.
Some molecules, each annotated with its measured normalized growth.
Please give the numeric answer without any surrounding text.

N[C@@H]1[C@@H](O)[C@H](O)[C@@H](CO)O[C@H]1O ... 1
Cc1cc(O)c(C=O)c2c1C(=O)Oc1c(C)c(O)c3c(c1O2)C(O)OC3=O (stereo not given) ... 0.969
CC(=O)N=c1sc(S(N)(=O)=O)nn1C ... 1.01
Nc1ccn(C2O[C@H](CO)[C@@H](O)[C@H]2O)c(=O)n1 (stereo not given in full) ... 0.999
CC(CN(C)C)CN1c2ccccc2Sc2ccccc21 (stereo not given) ... 0.993

Name the reported normalized growth value associated with the molecule `CC(=O)Nc1nnc(S(N)(=O)=O)s1`
0.979

What normalized growth value was documented for this molecule, CC(CN(C)C)CN1c2ccccc2CCc2ccccc21 (stereo not given) ?
1.02

Name the recorded normalized growth for C[C@@H]1O[C@@H](O[C@H]2C[C@@H](O)[C@]3(CO)C4C(CC[C@]3(O)C2)[C@@]2(O)CC[C@H](C3=CC(=O)OC3)[C@@]2(C)C[C@H]4O)[C@H](O)[C@H](O)[C@H]1O (stereo not given in full) .
0.987

State the recorded normalized growth for this entry: CC[C@H](CCC(C)[C@H]1CCC2C3CCC4C[C@@H](O)CC[C@]4(C)C3CC[C@@]21C)C(C)C (stereo not given in full)
1

Suppose we examine the molecule COc1c2ccoc2nc2c(OC)c(OCC(O)C(C)(C)O)ccc12 (stereo not given) ; what normalized growth value has been reported?
0.995

Requested field: normalized growth. Item: `O=c1cc(-c2ccccc2)oc2c(O)c(O)ccc12`
0.981

What does the data say about its normalized growth? Entry: CC(CCC(=O)O)[C@H]1CCC2C3C[C@H](O)[C@@H]4C[C@H](O)CC[C@]4(C)C3CC[C@@]21C (stereo not given in full)
1.03

GET /values?readout=normalized growth&item= `CCCCC[C@H](CC(=O)NO)C(=O)N[C@H](C(=O)N1CCC[C@H]1CO)C(C)C`
1.01

----------
assay remarks: chemical genetic growth profiling, strain panel (AID 1159580)
condition context: S. cerevisiae deletion strains, growth OD, locus YKL085W, strain MDH1
The whole screen tested about 5,500 compounds, of which about 2,000 (36%) were called active. Not shown: some 18% with an inconclusive outcome. No stated cut-off is given here; in the data, active means normalized growth mostly below about 0.91 (no sharp cut-off); inconclusive means no clear call, values can overlap the other calls; inactive means mostly above about 0.92. This is one part of the list.
Respond with a class label; see active, inactive

Answered examples (4):
C=C1C2CC[C@@]3(C)[C@H](c4ccoc4)OC(=O)C[C@]13O[C@H]1CC(O)C(C)(C)C(CC(=O)OC)[C@@]21C (stereo partly drawn) ... inactive
NNCCc1ccccc1 ... inactive
CN1CCN(C2=Nc3ccccc3Oc3ccc(Cl)cc32)CC1 ... inactive
C=C1[C@H]2CC[C@@]3(C)[C@H](c4ccoc4)OC(=O)C[C@]13O[C@H]1C[C@H](O)C(C)(C)[C@H](CC(=O)OC)[C@]12C ... inactive

Please share the test call associated with CCC(=O)c1ccc2c(c1)N(CC(C)N(C)C)c1ccccc1S2 (stereo not drawn) .
inactive

// return assay outcome for `COC(=O)CCCOc1ccc(Cl)cc1Cl`
inactive

----------
assay remarks: chemical genetic growth profiling, strain panel (AID 1159580)
condition context: S. cerevisiae deletion strains, growth OD, locus YOR144C, strain elg1, stronger effect = lower value
The whole screen tested about 5,500 compounds, of which about 2,000 (36%) were called active. Inconclusive results (about 18%) are left out. Some of the results follow.
normalized growth listing for selected compounds.
Reply briefly: the number, and no unit.

CC[C@H](CCC(C)[C@H]1CCC2C3CCC4C[C@@H](O)CC[C@]4(C)C3CC[C@@]21C)C(C)C (stereo partly drawn) ... 1.01

For the compound CC(CCC(=O)O)[C@H]1CCC2C3CC[C@@H]4CCCC[C@]4(C)C3CC[C@@]21C (stereo partly drawn) , what normalized growth is on record?
0.992

normalized growth for CC(CCC(=O)O)[C@H]1CCC2C3CC[C@@H]4C[C@H](O)CC[C@]4(C)C3CC[C@@]21C (stereo partly drawn) ?
1.02

Looking for the measured normalized growth of CC(CCC(=O)O)[C@H]1CCC2C3CC[C@@H]4C[C@H](O)CC[C@]4(C)C3C[C@H](O)[C@@]21C (stereo partly drawn) , can you help?
0.987

----------
assay remarks: chemical genetic growth profiling, strain panel (AID 1159580);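 also: tested at 20 µM; growth read once vehicle control cultures reached saturation at 30 °C; 1 = growth at the plate median or of vehicle wells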
condition context: S. cerevisiae deletion strains, growth OD, locus YLR221C, strain rsa3, stronger effect = lower value
Out of some 5,500 compounds screened, about 2,000 (36%) were called active. About 18% were inconclusive and are not listed. The list shows a part of the results.
readout name: normalized growth
Form: value (number only, do not type unit).

Field: example entries. Status: answers known.
CC1=C2[C@H]3OC(=O)[C@@H](C)[C@@H]3CC[C@@]2(C)C=CC1=O ... 0.959
CCCCS(=N)(=O)CCC(N)C(=O)O (stereo unspecified) ... 0.986
COc1cc(OC)c(OC)cc1C=O ... 0.992
C[C@H](CCC(=O)O)[C@H]1CCC2C3C(CC[C@@]21C)[C@@]1(C)CC[C@@H](O)C[C@H]1C[C@H]3O (stereo partly specified) ... 0.954
NC(=O)c1ncn(C2O[C@H](CO)[C@@H](O)[C@H]2O)c1N (stereo partly specified) ... 1.03

Consider the compound shown here: `O=c1[nH]cnc2[nH]ncc12` What is its recorded normalized growth?
1.01

----------
assay remarks: chemical genetic growth profiling, strain panel (AID 1159580);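 also: tested at 20 µM; growth read once vehicle control cultures reached saturation at 30 °C; 1 = growth at the plate median or of vehicle wells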
condition context: S. cerevisiae deletion strains, growth OD, locus YBR279W, strain paf1, stronger effect = lower value
The whole screen tested about 5,500 compounds, of which about 2,000 (36%) were called active. Another 18% or so got no clear call; they are omitted. The list shows a part of the results.
Measured normalized growth of individual entries

Solved cases below.
O=c1cc(-c2ccc(O)cc2)oc2cc(O)ccc12 ... 0.974 (inactive)
CNC(=O)Oc1ccc2c(c1)[C@]1(C)CCN(C)[C@@H]1N2C ... 1.03 (inactive)
O=c1cc(-c2ccccc2)oc2cc(O)c(O)cc12 ... 0.945 (inactive)
CCCC(C(=O)OCCN(CC)CC)(c1ccccc1)c1ccccc1 ... 0.995 (inactive)
S=P(N1CC1)(N1CC1)N1CC1 ... 0.999 (inactive)

Next item in the queue.
What does the data say about its normalized growth? Entry: `O=c1cc(-c2ccc(O)cc2)oc2cc(O)cc(O)c12`
0.994 (inactive)

----------
assay remarks: chemical genetic growth profiling, strain panel (AID 1159580);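 also: tested at 20 µM; growth read once vehicle control cultures reached saturation at 30 °C; 1 = growth at the plate median or of vehicle wells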
condition context: S. cerevisiae deletion strains, growth OD, locus YHR027C, strain rpn1
Screen size: about 5,500 compounds; about 2,000 (36%) were called active. Not shown: some 18% with an inconclusive outcome. Rule as the data show it: active = normalized growth mostly below about 0.91 (no sharp cut-off); inconclusive = no clear call, values can overlap the other calls; inactive = mostly above about 0.92. Some of the results follow.
Reply using exactly one outcome from active, inactive

O=c1cc(-c2ccccc2)oc2cccc(O)c12 ... inactive

Please let me know the test result on file for `CC(=O)Nc1ccccc1` .
inactive

Can you look up the reported call for `O=C(Nc1ccccc1)Nc1ccccc1` for me?
inactive

Which outcome did this test record for the molecule `O=c1cc(-c2ccccc2)oc2cc(O)c(O)c(O)c12` ?
active

# fetch the recorded call for C=Cc1c(C)c2[n-]c1=Cc1[n-]c(c(CC)c1C)C=c1[n-]c3c(c1C)C(=O)C(C(=O)[O-])C=3c1[n-]c(c(C)c1CCC(=O)[O-])C=2.[Cu] (stereo unspecified) here
inactive

Assay outcome for `COc1cc(C)c(C(=O)Oc2cc(C)c(C(=O)O)c(O)c2C)c(OC)c1C` : what was it?
inactive
